Measurement target: Induced myeloid leukemia cell differentiation protein Mcl-1 (Homo sapiens, UniProt Q07820)
Sequence (Q07820 whole entry): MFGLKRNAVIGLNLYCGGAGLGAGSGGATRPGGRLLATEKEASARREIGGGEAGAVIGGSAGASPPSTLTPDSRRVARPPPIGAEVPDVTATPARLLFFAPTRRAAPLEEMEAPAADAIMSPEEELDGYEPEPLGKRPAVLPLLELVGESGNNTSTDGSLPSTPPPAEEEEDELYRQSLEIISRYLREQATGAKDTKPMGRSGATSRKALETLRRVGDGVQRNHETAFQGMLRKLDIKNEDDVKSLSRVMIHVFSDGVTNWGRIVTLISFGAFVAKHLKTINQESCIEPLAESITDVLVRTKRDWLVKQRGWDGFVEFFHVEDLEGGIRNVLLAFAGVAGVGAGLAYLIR
Method notes: Displacement of FITC-Bim BH3 peptide from Mcl-1 after 10 mins by fluorescence polarization assay
// boundary case: Ki equal to 300 nM maps to not satisfied; strictly smaller maps to satisfied

Some solved cases for reference:
INSERT INTO measurements (chemical_smiles, category_label) VALUES
  ('CC1=C(C2=C(C)C(=O)c3c(cc(O)c(O)c3Cc3ccccc3)C2=O)C(=O)c2cc(O)c(O)c(Cc3ccccc3)c2C1=O', 'satisfied'),
  ('CC1=C(C2=C(C)C(=O)c3c(cc(O)c(O)c3Cc3ccc(Cl)cc3)C2=O)C(=O)c2cc(O)c(O)c(Cc3ccc(Cl)cc3)c2C1=O', 'satisfied');

Prompt: Strictly below 300 nM: is that where Ki of CC1=C(C2=C(C)C(=O)c3c(cc(O)c(O)c3CCc3ccc(C)cc3)C2=O)C(=O)c2cc(O)c(O)c(CCc3ccc(C)cc3)c2C1=O sits?
Completion: not satisfied

Prompt: Query CC1=C(C2=C(C)C(=O)c3c(cc(O)c(O)c3CC(C)C)C2=O)C(=O)c2cc(O)c(O)c(CC(C)C)c2C1=O next
Completion: not satisfied

Prompt: Please answer likewise for CC1=C(C2=C(C)C(=O)c3c(cc(O)c(O)c3CCc3ccccc3)C2=O)C(=O)c2cc(O)c(O)c(CCc3ccccc3)c2C1=O
Completion: not satisfied

* * *

Measurement target: Bcl-2-like protein 1 (Homo sapiens, UniProt Q07817)
Sequence (Q07817 whole entry): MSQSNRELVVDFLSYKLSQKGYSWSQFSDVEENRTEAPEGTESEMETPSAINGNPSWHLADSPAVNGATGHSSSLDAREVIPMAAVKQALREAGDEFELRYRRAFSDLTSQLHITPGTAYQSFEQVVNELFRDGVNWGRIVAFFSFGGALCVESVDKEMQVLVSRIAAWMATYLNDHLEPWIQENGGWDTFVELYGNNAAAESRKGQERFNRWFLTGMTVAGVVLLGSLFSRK
Method notes: Displacement of F-BakBH3 from Bcl-xL after 30 mins by fluorescence polarization assay
# key: entry, value: IC50
Value expressed in nM; do not type the unit.

Illustrative cases are given below, each with its answer.
INSERT INTO assay_data (chemical_smiles, measured_attribute, value_units, measured) VALUES
  ('CC1=C(C2=C(C)C(=O)c3c(cc(O)c(O)c3CCc3ccccc3)C2=O)C(=O)c2cc(O)c(O)c(CCc3ccccc3)c2C1=O', 'IC50', 'nM', 1790),
  ('CC1=C(C2=C(C)C(=O)c3c(cc(O)c(O)c3CCCc3ccccc3)C2=O)C(=O)c2cc(O)c(O)c(CCCc3ccccc3)c2C1=O', 'IC50', 'nM', 1440);

Prompt: I have this compound here, CCc1ccc(CCNC(=O)c2c(O)c(O)cc3c2C(=O)C(C)=C(C2=C(C)C(=O)c4c(cc(O)c(O)c4C(=O)NCCc4ccc(CC)cc4)C2=O)C3=O)cc1 , and I need its recorded IC50.
Completion: 240

* * *

Measurement target: Bcl-2-related protein A1 (Homo sapiens, UniProt Q16548)
Sequence (Q16548 whole entry): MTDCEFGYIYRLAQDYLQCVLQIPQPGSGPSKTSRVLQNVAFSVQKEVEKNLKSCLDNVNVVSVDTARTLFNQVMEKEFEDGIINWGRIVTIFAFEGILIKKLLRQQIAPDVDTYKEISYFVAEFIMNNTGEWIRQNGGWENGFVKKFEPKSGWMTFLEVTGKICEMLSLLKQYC
Measured attribute: IC50 (nM)
Respond numerically; units are nM and should not be typed.

Solved cases below.
INSERT INTO assay_data (compound, measured_attribute, measured) VALUES
  ('CC1=C(C2=C(C)C(=O)c3c(cc(O)c(O)c3Cc3ccc(Cl)cc3)C2=O)C(=O)c2cc(O)c(O)c(Cc3ccc(Cl)cc3)c2C1=O', 'IC50', 700),
  ('CC1=C(C2=C(C)C(=O)c3c(cc(O)c(O)c3C(=O)NCC(C)c3ccccc3)C2=O)C(=O)c2cc(O)c(O)c(C(=O)NCC(C)c3ccccc3)c2C1=O (stereo not drawn)', 'IC50', 710);

Prompt: Item: CC1=C(C2=C(C)C(=O)c3c(cc(O)c(O)c3C(=O)Cc3ccccc3)C2=O)C(=O)c2cc(O)c(O)c(C(=O)Cc3ccccc3)c2C1=O Test system: Bcl-2-related protein A1 (Homo sapiens, UniProt Q16548) Read-out: IC50 Value: ?
Completion: 690
